# Test system: CD2F1 mice, L1210 leukemia ip, survival T/C
# ASSAY PROTOCOL: NCI In Vivo Anticancer Drug Screen. Data for tumor model L1210 Leukemia (intraperitoneal) in CD2F1 (CDF1) mice
# SETUP CONDITIONS: endpoint: mean survival time; dose: 50.0 mg/kg/injection; schedule: Q04DX002 (ip); vehicle: saline; higher = longer survival
Toxic doses and inconclusive results are not listed.
ENDPOINT NAME: T/C

Challenge: Tell me measured T/C for `O=C(O)CS(=O)(=O)O` please.
Response given: 100 % of control

Challenge: Output T/C of CN(C)C1CCCC(OC(=O)c2ccccc2)C1 (centres undefined)
Response given: 105 % of control

Challenge: Give recorded T/C. `NC(CCl)=NCCc1ccsc1`
Response given: 106 % of control

Challenge: # return recorded T/C for input O=S(CCCCO)c1ccccc1 (centres undefined)
Response given: 101 % of control

Just for reference, PubChem BioAssay AID256 is where these values come from.
